biological target: human D2R/β-arrestin (Homo sapiens (Human), UniProt P14416); assay: Gi/cAMP agonist assay (Lance Ultra cAMP, forskolin); assay type: cell-based; conditions: CHO-K1 cells expressing human D2R/β-arrestin; agonist mode, 2.5 μM forskolin
Sequence (P14416 whole entry): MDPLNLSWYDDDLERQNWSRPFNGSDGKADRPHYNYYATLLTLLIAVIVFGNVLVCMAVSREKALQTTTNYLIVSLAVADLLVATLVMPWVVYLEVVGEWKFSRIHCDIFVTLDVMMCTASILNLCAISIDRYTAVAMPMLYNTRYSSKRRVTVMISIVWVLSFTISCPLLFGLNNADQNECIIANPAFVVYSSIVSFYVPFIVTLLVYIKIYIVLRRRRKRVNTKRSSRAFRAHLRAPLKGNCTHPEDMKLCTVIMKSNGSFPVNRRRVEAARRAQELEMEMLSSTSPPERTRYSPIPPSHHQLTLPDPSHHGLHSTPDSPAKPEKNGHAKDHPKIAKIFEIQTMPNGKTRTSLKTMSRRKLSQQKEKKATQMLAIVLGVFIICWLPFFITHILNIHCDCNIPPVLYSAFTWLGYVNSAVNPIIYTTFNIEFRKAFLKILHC
EXPERIMENTAL_ENDPOINT: EC50

For every record below, what is its EC50?
1. CC1(Oc2ccc(Cl)cc2)CCN(CCOc2ccc(C(C)(C)O)cc2)CC1
2. CC1(Oc2ccc(Cl)cc2)CCN(CCOc2ccncc2)CC1
3. CC1(NC(=O)C(F)(F)F)CCN(C[C@H]2COc3ccccc3O2)CC1
4. CC1(O)CCN(C2CCCN(c3ccccc3C(F)(F)F)C2)CC1 (stereo not shown)
5. CN(CCN1CCC(C)(Oc2ccc(Cl)cc2)CC1)c1ccccc1C(F)(F)F
6. CC1(Oc2ccc(Cl)cc2)CCN(CCOc2ccc(C(F)(F)F)cc2)CC1
7. CC1(Oc2ccc(Cl)cc2)CCN(CCOC2CCCCC2)CC1

A:
> 30 µM
0.1 to 1 µM
< 0.1 µM
> 30 µM
> 30 µM
0.1 to 1 µM
10 to 30 µM

====

biological target: human D2R/β-arrestin (Homo sapiens (Human), UniProt P14416); assay: cell-based; conditions: cAMP Antagonist, CHO-K1 cells expressing human D2R/β-arrestin; antagonist mode, 2.5 μM forskolin and 2.7 nM quinpirole
For each record, write down the corresponding IC50.

COMPOUND	IC50
FC1(Cc2ccccc2)CCN(CCOc2ccccc2C(F)(F)F)CC1 [Compound 115]	1000 to 10000 nM
CNC(=O)C1(C)CCN(CCOc2ccccc2OC)CC1 [Compound 201]	100 to 1000 nM
CNCC1(C)CCN(C[C@H]2COc3ccccc3O2)CC1 [Compound 207]	> 30000 nM
CC1(Oc2ccc(Cl)cc2)CCN(CCOc2cc(F)ccc2F)C1 (stereo not shown) [Compound 23]	> 30000 nM
CC1(Oc2ccc(Cl)cc2)CCN(CCOc2ccccc2F)C1 (stereo not shown) [Compound 9]	> 30000 nM
CC1(C(=O)c2ccccc2)CCN(CCOc2ccccc2C(F)(F)F)CC1 [Example 106]	< 100 nM
CC1(Oc2cccc(C(F)(F)F)c2)CCN(CCOc2ccccc2Cl)C1 (stereo not shown) [Example 65]	100 to 1000 nM
CC1(O)CCN(C2CCCN(c3ccccc3C(F)(F)F)C2)CC1 (stereo not shown) [Compound 177]	1000 to 10000 nM

For every record below, what is its IC50?
1. CC1(Oc2ccc(Cl)cc2)CCN(CCOc2ccc(C(F)(F)F)nc2)CC1 [Compound 147]
2. CC1(Cc2ccc(Cl)cc2)CCN(CCOc2ccccc2C(F)(F)F)CC1 [Compound 215]
3. CC1(Oc2cccnc2)CCN(CCOc2ccccc2)C1 (stereo not shown) [Example 58]
4. CC1(Oc2ccc(Cl)cc2)CCCN(CCOc2ccccc2)C1 (stereo not shown) [Example 96]
5. CC1(Oc2ccccc2)CCN(CCCCOc2ccccc2)CC1 [Compound 121]
6. CC(=O)c1ccc(OCCN2CCC(C)(Oc3ccc(Cl)cc3)CC2)cc1 [Compound 153]
7. CC(=O)NC1(C)CCN(C[C@H]2COc3ccc(Br)cc3O2)CC1 [Compound 211]

A:
["> 30000 nM", "10000 to 30000 nM", "> 30000 nM", "< 100 nM", "> 30000 nM", "1000 to 10000 nM", "< 100 nM"]

For every record below, what is its IC50?
1. CN(CCN1CCC(C)(Oc2ccc(Cl)cc2)CC1)c1ccccc1C(F)(F)F [Compound 169]
2. CC1(O)CCN(CCOc2ccccc2F)CC1 [Compound 131]
3. CC1(Oc2ccc(Cl)cc2)CCN(CCOc2cccc(-c3ccccc3)c2)C1 (stereo not shown) [Compound 37]
4. CC1(Oc2ccc(Cl)cc2)CCN(CCOc2cccnc2)CC1 [Compound 182]
5. CC1(Oc2ccc(Cl)cc2)CCN(CCOc2ccc(F)cc2)C1 (stereo not shown) [Compound 14]

A:
100 to 1000 nM
> 30000 nM
100 to 1000 nM
> 30000 nM
100 to 1000 nM

For every record below, what is its IC50?
1. CC1(Oc2ccc(Cl)cc2)CCN(CCOc2ccc(F)cc2)CC1 [Compound 149]
2. CC1(Oc2ccc(Cl)cc2)CCN(CCOc2ccc3cccc(C(F)(F)F)c3n2)CC1 [Compound 171]

A:
["> 30000 nM", "> 30000 nM"]

====

For each record, write down the corresponding pEC50.
target: human D2R/β-arrestin (Homo sapiens (Human), UniProt P14416); experiment: β-arrestin agonist assay (PathHunter); type: cell-based; details: CHO-K1 cells expressing human D2R/β-arrestin; agonist mode
pEC50: −log10 of the molar value.

Worked examples follow.
MOLECULE	pEC50
CC1(Oc2ccccc2)CCN(CCOc2ccc(F)cc2C(F)(F)F)CC1	< 4.52
CC1(Oc2ccccc2)CCN(CCCCOc2ccccc2)CC1	6.00 to 7.00
C[C@]1(O)C[C@H]2CC[C@@H](C1)N2CCOc1ccccc1C(F)(F)F	< 4.52

For every record below, what is its pEC50?
1. CC(=O)NC1(C)CCN(C[C@H]2COc3ccc(F)cc3O2)CC1
2. CC1(Oc2cccc(C(F)(F)F)c2)CCN(CCOc2ccccc2)C1 (stereo not shown)
3. CNC(=O)C1(C)CCN(CCOc2ccccc2F)CC1

A:
["6.00 to 7.00", "< 4.52", "< 4.52"]

For every record below, what is its pEC50?
1. CC1(Oc2ccc(Cl)cc2)CCN(CCOC2CCCCC2)CC1
2. CC1(Oc2ccc(Cl)cc2)CCN(CCOc2cc(F)ccc2C(F)(F)F)CC1
3. OC1(Cc2ccccc2F)CCN(CCOc2ccccc2)C1 (stereo not shown) [Compound 300, reference compound]
4. CC1(Oc2cccc(Cl)c2Cl)CCN(CCOc2ccccc2)C1 (stereo not shown)

A:
< 4.52
< 4.52
< 4.52
< 4.52

====

target: human D2R/β-arrestin (Homo sapiens (Human), UniProt P14416); details: read-out: β-arrestin Antagonist; CHO-K1 cells expressing human D2R/β-arrestin; antagonist mode, quinpirole 130 nM
pIC50: −log10 of the molar value.
EXPERIMENTAL_ENDPOINT: pIC50

MOLECULE	ASSAY_TARGET	pIC50
CC1(Oc2ccncc2)CCN(CCOc2ccccc2)C1 (centres unmarked) [Example 59b]	human D2R/β-arrestin (Homo sapiens (Human), UniProt P14416)	< 4.52
CC1(Oc2ccc(Cl)cc2)CCCN(CCOc2ccccc2F)C1 (centres unmarked) [Example 98a]	human D2R/β-arrestin (Homo sapiens (Human), UniProt P14416)	> 7.00
CC1(C(=O)Nc2ccccc2)CCN(CC2COc3ccccc3O2)CC1 (single isomer, unassigned) [Compound 204b]	human D2R/β-arrestin (Homo sapiens (Human), UniProt P14416)	5.00 to 6.00
CC1(Oc2ccc(Cl)cc2)CCN(CCOc2ccc3ncsc3c2)C1 (centres unmarked) [Compound 18b]	human D2R/β-arrestin (Homo sapiens (Human), UniProt P14416)	5.00 to 6.00

Q: Look up pIC50 of FC(F)(F)c1ccccc1OCCN1CCC2(CC1)CC2c1ccccc1 (centres unmarked) [Example 102a] and report it.
A: 6.00 to 7.00

====

assay: Pharmacokinetic and brain distribution study in mice; type: in vivo; conditions: mouse, ip; plasma; single intraperitoneal dose 30 mg/kg, male C57BL/6 mice; read-out: Plasma T1/2 (converted)
EXPERIMENTAL_ENDPOINT: half-life (h)
Give bare numbers, in h.

For every record below, what is its half-life?
1. CC1(Oc2ccc(Cl)cc2)CCN(CCOc2ccc(C(F)(F)F)cc2)CC1
2. CC1(Oc2ccc(Cl)cc2)CCN(CCOc2ccc(F)cc2C(F)(F)F)CC1
3. CC1(Oc2ccc(Cl)cc2)CCN(CCOc2ccccc2C(F)(F)F)CC1

A:
1: 13.4; 2: 6.2; 3: 4.7

====

target: human D2R/β-arrestin (Homo sapiens (Human), UniProt P14416); experiment: Gi/cAMP agonist assay (Lance Ultra cAMP, forskolin); format: cell-based; conditions: CHO-K1 cells expressing human D2R/β-arrestin; agonist mode, 2.5 μM forskolin
For each record, write down the corresponding EC50.

Worked examples follow.
COMPOUND	EXPERIMENTAL_ENDPOINT	REPORTED
CC1(Oc2ccc(Cl)cc2)CCN(CCOc2ccc(C(F)(F)F)nc2)CC1 [Compound 147]	EC50	< 100 nM
CC1(Oc2ccc(Cl)cc2)CCN(CCOc2ccccc2OC(F)(F)F)CC1 [Compound 146]	EC50	100 to 1000 nM
CC1(C(=O)Nc2ccccc2)CCN(CCOc2ccccc2C(F)(F)F)CC1 [Compound 219]	EC50	> 30000 nM
CC1(Oc2ccccc2)CCN(CCOc2ccccc2S(C)(=O)=O)CC1 [Compound 141]	EC50	1000 to 10000 nM
FC(F)(F)c1ccccc1OCCN1CCC2(CC1)CC2c1ccccc1 (stereo not drawn) [Example 102]	EC50	100 to 1000 nM
Cc1ccccc1OCCN1CCC(C)(Oc2ccccc2)CC1 [Example 69]	EC50	< 100 nM

For every record below, what is its EC50?
1. CC1(Oc2ccccc2)CCN(C(C)(C)COc2ccccc2C(F)(F)F)CC1 [Example 80]
2. C#CC1(Oc2ccccc2)CCN(CCOc2ccccc2C(F)(F)F)CC1 [Compound 194]
3. COc1ccccc1OCCN1CCC(C)(Oc2ccc(Cl)cc2)CC1 [Compound 188]

A:
1: 10000 to 30000 nM; 2: < 100 nM; 3: 100 to 1000 nM
